IC50 overview
test-target: acetylcholinesterase (Rattus norvegicus)
Sequence (P37136 32-614): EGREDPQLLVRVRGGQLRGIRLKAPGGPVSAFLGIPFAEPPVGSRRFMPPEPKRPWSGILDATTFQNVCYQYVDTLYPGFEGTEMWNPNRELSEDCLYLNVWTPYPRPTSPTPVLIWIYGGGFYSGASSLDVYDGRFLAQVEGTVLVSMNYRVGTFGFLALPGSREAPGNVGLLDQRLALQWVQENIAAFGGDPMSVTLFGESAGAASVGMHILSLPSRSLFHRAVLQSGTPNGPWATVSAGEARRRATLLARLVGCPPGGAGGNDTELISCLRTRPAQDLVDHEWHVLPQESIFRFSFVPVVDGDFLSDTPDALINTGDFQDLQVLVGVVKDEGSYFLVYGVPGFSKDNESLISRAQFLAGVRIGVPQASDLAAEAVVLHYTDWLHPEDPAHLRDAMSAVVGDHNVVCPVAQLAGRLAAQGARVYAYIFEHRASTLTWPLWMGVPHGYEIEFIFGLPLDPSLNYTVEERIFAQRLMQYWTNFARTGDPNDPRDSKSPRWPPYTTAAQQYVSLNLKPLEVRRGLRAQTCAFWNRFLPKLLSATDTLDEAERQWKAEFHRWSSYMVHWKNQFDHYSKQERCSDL
Counter-ions that a name gives are not always drawn.

{"columns": ["molecule", "IC50 [nM]"],
 "data": [
  ["COc1cc2c(cc1OC)C(=O)C(Cl)(CC1CCN(Cc3ccccc3)CC1)C2 (centres unmarked) [Example 1, hydrochloride]", 2],
  ["CCOc1cc2c(cc1OCC)C(=O)C(Cl)(CC1CCN(Cc3ccccc3)CC1)C2 (centres unmarked) [Example 6, hydrochloride]", 2]
]}
